Below is a list of entries, each paired with its recorded pIC50 value.
Experimental Target: P2X purinoceptor 7 (Homo sapiens)
Sequence (Q99572 whole entry): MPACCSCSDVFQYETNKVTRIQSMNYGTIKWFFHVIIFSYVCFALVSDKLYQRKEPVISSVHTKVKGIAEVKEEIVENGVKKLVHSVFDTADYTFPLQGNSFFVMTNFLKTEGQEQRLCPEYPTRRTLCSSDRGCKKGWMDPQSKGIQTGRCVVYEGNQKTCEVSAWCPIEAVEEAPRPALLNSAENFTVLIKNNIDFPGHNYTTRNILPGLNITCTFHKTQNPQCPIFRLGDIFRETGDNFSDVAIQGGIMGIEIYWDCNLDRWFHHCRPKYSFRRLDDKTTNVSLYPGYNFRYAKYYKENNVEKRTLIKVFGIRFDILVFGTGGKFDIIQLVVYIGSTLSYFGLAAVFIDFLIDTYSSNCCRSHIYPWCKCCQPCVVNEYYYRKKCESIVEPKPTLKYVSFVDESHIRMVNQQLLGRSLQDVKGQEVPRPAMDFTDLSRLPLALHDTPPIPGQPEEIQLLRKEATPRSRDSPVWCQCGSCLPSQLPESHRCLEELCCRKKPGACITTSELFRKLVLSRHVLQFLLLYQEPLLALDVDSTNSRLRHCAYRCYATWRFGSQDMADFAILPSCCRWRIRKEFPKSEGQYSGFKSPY
Measurement Notes: Antagonist activity at human purinergic P2X7 receptor expressed in HEK293 cells assessed as inhibition of BzATP-induced ethidium bromide uptake
Type: functional, cell-based
Here pIC50 is given on a logarithmic scale as minus log10 of the concentration in mol/L.

Find the recorded pIC50 belonging to CC(C)(C)OC(=O)N1CCN(C(=O)[C@H](Cc2ccc(OS(=O)(=O)c3ccc(CBr)cc3)cc2)NC(=O)OCc2ccccc2)CC1 and report it.
5.61

What about Cc1ccc(S(=O)(=O)Oc2ccc(C[C@H](NC(=O)OCc3ccccc3)C(=O)N3CCN(C(=O)c4ccc(C(F)(F)F)cc4)CC3)cc2)cc1 ?
6.14

For Cc1ccc(S(=O)(=O)Oc2ccc(C[C@H](NC(=O)OCc3ccccc3)C(=O)N3CCN(C(=O)c4ccccc4)[C@H](C)C3)cc2)cc1 then?
6.59

// repeat for CN([C@@H](Cc1ccc(OS(=O)(=O)c2cccc3cnccc23)cc1)C(=O)N1CCN(c2ccccc2)CC1)S(=O)(=O)c1cccc2cnccc12 and report
6.76

Request: Cc1ccc(S(=O)(=O)Oc2ccc(C[C@H](NC(=O)OCc3ccccc3)C(=O)N3CCN(C(=O)c4ccc(Br)cc4)CC3)cc2)cc1
6.32

And the next one, Cc1ccc(S(=O)(=O)Oc2ccc(C[C@H](NC(=O)OCc3ccccc3)C(=O)N3CCN(C(=O)c4ccccc4)CC3)cc2)cc1 ?
6.22
